target desc: Human immunodeficiency virus type 1 protease (Human immunodeficiency virus 1)
pIC50: −log10 of the molar value.
measured parameter: pIC50

                                 item_smiles  data_value
 0  CCCN(C[C@@H](O)[C@H](Cc1ccccc1)NC(=O)/C=C/c1cc(OC)c(O)c(OC)c1)S(=O)(=O)c1ccc(OC)cc1        7.44
 1  CC(C)CN(C[C@@H](O)[C@H](Cc1ccccc1)NC(=O)CCc1ccc(O)c(O)c1)S(=O)(=O)c1ccc(N)cc1        9.25
 2  COc1ccc(S(=O)(=O)N(C[C@@H](O)[C@H](Cc2ccccc2)NC(=O)CCc2ccc(O)c(OC)c2)C(C)C)cc1        8.02
 3  COc1ccc(S(=O)(=O)N(CC(C)C)C[C@@H](O)[C@H](Cc2ccccc2)NC(=O)CCc2ccc(O)c(O)c2)cc1        9.41
 4  CSc1ccc(S(=O)(=O)N(CC(C)C)C[C@@H](O)[C@H](Cc2ccccc2)NC(=O)CCc2ccc(O)c(O)c2)cc1        8.69
 5  COc1ccc(S(=O)(=O)N(C[C@@H](O)[C@H](Cc2ccccc2)NC(=O)CCc2ccc(O)c(O)c2)C2CC2)cc1        8.39
 6  COc1ccc(S(=O)(=O)N(C[C@@H](O)[C@H](Cc2ccccc2)NC(=O)/C=C/c2cc(OC)c(O)c(OC)c2)C(C)C)cc1        6.28
 7  COc1cc(CCC(=O)N[C@@H](Cc2ccccc2)[C@H](O)CN(CC(C)C)S(=O)(=O)c2ccc(N)cc2)ccc1O        9.24
 8  COc1ccc(S(=O)(=O)N(C[C@@H](O)[C@H](Cc2ccccc2)NC(=O)CCc2ccc(O)c(O)c2)C(C)C)cc1        8.83
 9  COc1ccc(S(=O)(=O)N(CC(C)C)C[C@@H](O)[C@H](Cc2ccccc2)NC(=O)/C=C/c2ccc(O)c(OC)c2)cc1        8.53
10  CCCN(C[C@@H](O)[C@H](Cc1ccccc1)NC(=O)/C=C/c1ccc(O)c(OC)c1)S(=O)(=O)c1ccc(OC)cc1        7.62
11  COc1cc(/C=C/C(=O)N[C@@H](Cc2ccccc2)[C@H](O)CN(CC(C)C)S(=O)(=O)c2ccc(SC)cc2)ccc1O        7.80
12  CC(C)CN(C[C@@H](O)[C@H](Cc1ccccc1)NC(=O)/C=C/c1ccc(O)c(O)c1)S(=O)(=O)c1ccc(N)cc1        9.70
13  COc1ccc(S(=O)(=O)N(C[C@@H](O)[C@H](Cc2ccccc2)NC(=O)CCc2cc(OC)c(O)cc2OC)C2CC2)cc1        6.79
14  COc1ccc(S(=O)(=O)N(C[C@@H](O)[C@H](Cc2ccccc2)NC(=O)/C=C/c2ccc(O)c(OC)c2)C(C)C)cc1        7.01
15  COc1ccc(S(=O)(=O)N(CC(C)C)C[C@@H](O)[C@H](Cc2ccccc2)NC(=O)/C=C/c2ccc(O)c(O)c2)cn1        8.54
16  CCCN(C[C@@H](O)[C@H](Cc1ccccc1)NC(=O)/C=C/c1ccc(O)c(O)c1)S(=O)(=O)c1ccc(OC)cc1        8.59
17  COc1ccc(S(=O)(=O)N(C[C@@H](O)[C@H](Cc2ccccc2)NC(=O)/C=C/c2cc(OC)c(O)c(OC)c2)C2CC2)cc1        6.53
18  COc1cc(CCC(=O)N[C@@H](Cc2ccccc2)[C@H](O)CN(CC(C)C)S(=O)(=O)c2ccc(SC)cc2)c(OC)cc1O        7.05
19  CCCN(C[C@@H](O)[C@H](Cc1ccccc1)NC(=O)CCc1cc(OC)c(O)cc1OC)S(=O)(=O)c1ccc(OC)cc1        7.06
20  COc1ccc(S(=O)(=O)N(CC(C)C)C[C@@H](O)[C@H](Cc2ccccc2)NC(=O)/C=C/c2cc(OC)c(O)c(OC)c2)cn1        7.16
21  COc1ccc(S(=O)(=O)N(C[C@@H](O)[C@H](Cc2ccccc2)NC(=O)CCc2cc(OC)c(O)cc2OC)C(C)C)cc1        7.15
22  COc1ccc(S(=O)(=O)N(CC(C)C)C[C@@H](O)[C@H](Cc2ccccc2)NC(=O)CCc2cc(OC)c(O)cc2OC)cc1        6.98
23  COc1ccc(S(=O)(=O)N(CC(C)C)C[C@@H](O)[C@H](Cc2ccccc2)NC(=O)CCc2ccc(O)c(O)c2)cn1       10.09
24  COc1ccc(S(=O)(=O)N(CC(C)C)C[C@@H](O)[C@H](Cc2ccccc2)NC(=O)CCc2ccc(O)c(OC)c2)cn1        9.80
25  COc1ccc(S(=O)(=O)N(CC(C)C)C[C@@H](O)[C@H](Cc2ccccc2)NC(=O)/C=C/c2cc(OC)c(O)c(OC)c2)cc1        7.88
26  CSc1ccc(S(=O)(=O)N(CC(C)C)C[C@@H](O)[C@H](Cc2ccccc2)NC(=O)/C=C/c2ccc(O)c(O)c2)cc1        7.79
27  COc1ccc(S(=O)(=O)N(C[C@@H](O)[C@H](Cc2ccccc2)NC(=O)/C=C/c2ccc(O)c(O)c2)C(C)C)cc1        7.27
28  COc1ccc(S(=O)(=O)N(C[C@@H](O)[C@H](Cc2ccccc2)NC(=O)/C=C/c2ccc(O)c(OC)c2)C2CC2)cc1        7.01

This collection of values is drawn from ChEMBL document CHEMBL4825676.
